The measured values listed here are drawn from the supplement of paper PMC6757056.

In this section, each of the variants is paired with its reported FACS-Seq fitted mean (log10).
B1: library; a variant is named by its letters at N, in order (parent)
chain: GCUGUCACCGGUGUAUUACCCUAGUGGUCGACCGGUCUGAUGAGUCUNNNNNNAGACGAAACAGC

- Variants of: B1
- ASSAY: FACS-Seq fitted mean relative fluorescence mCherry/BFP with ligand (log10 relative fluorescence); ligand: hypoxanthine (xanthine aptamer); ligand concentration (+) FACS-Seq: 5 mM; higher = higher reporter protein expression
- RUN CONDITIONS: HEK293T, ligand present: yes

Recorded results for 5 variants are shown here.
>  <VARIANT IDENTIFIER>
GGAAUG

>  <FACS-Seq fitted mean (log10)>
-0.507

$$$$
>  <VARIANT IDENTIFIER>
UUGACG

>  <FACS-Seq fitted mean (log10)>
0.51

$$$$
>  <VARIANT IDENTIFIER>
ACUCAU

>  <FACS-Seq fitted mean (log10)>
0.716

$$$$
>  <VARIANT IDENTIFIER>
CCGCUA

>  <FACS-Seq fitted mean (log10)>
0.474

$$$$
>  <VARIANT IDENTIFIER>
UACGAG

>  <FACS-Seq fitted mean (log10)>
0.382

$$$$

Recorded FACS-Seq fitted mean (log10) for UACACU , please?
-0.34

Recorded FACS-Seq fitted mean (log10) for GCACUA , please?
0.489

Recorded FACS-Seq fitted mean (log10) for GUUGAU , please?
0.303

Recorded FACS-Seq fitted mean (log10) for AGUCGA , please?
0.654

Recorded FACS-Seq fitted mean (log10) for CGGUAG , please?
0.506

Recorded FACS-Seq fitted mean (log10) for GAACAA , please?
0.62

Recorded FACS-Seq fitted mean (log10) for UCGUGA , please?
0.578
